Items are presented alongside their recorded log10 of IC50.
tested on: IL-1β cytokine output from THP-1s; experiment: THP-1 AlphaLISA IL-1β cytokine assay; format: cell-based, human; settings: Homo sapiens, THP-1, PMA-differentiated THP-1 cells, LPS 24 hr then Nigericin 1 hour; read-out: IL-1β (IC50)
REPORTED PROPERTY: log10 of IC50 (log10 of the value in µM)

{"columns": ["MOLECULE", "log10 of IC50"],
 "data": [
  ["C=C(CC(=O)OCCCCCCCC)C(=O)OCCOC", 1.26],
  ["C=C(CC(=O)OC(CC)CCCCC)C(=O)OCC(=O)O (stereo not shown)", 0.93],
  ["C=C(CC(=O)OC(C)Cc1cc(Cl)cc(Cl)c1)C(=O)OCC(=O)O (stereo not shown)", 1.31],
  ["C=C(CC(=O)O[C@@H](C)CCCCCC)C(=O)OC1CN(C(C)=O)C1", 0.36],
  ["C=C(CC(=O)OCCCCCCCC)C(=O)OCC1(C#N)CC1", 1.28],
  ["C=C(CC(=O)OC(C1CCCCC1)C(F)(F)F)C(=O)OCC(=O)O (stereo not shown)", 0.91],
  ["C=C(CC(=O)OC(CCC)CCCC)C(=O)OCC(=O)O (stereo not shown)", 1.13],
  ["C=C(CC(=O)OC1CCCOCC1)C(=O)O[C@H]1[C@@H]2CC[C@H]1CN(S(C)(=O)=O)C2 (stereo partly shown)", 1.38],
  ["C=C(CC(=O)OC1C(C)(C)CC1(C)C)C(=O)OCC(=O)O", 1.19],
  ["C=C(CC(=O)O[C@H](C)CCCCC)C(=O)OCC(=O)O", 1.44],
  ["C=C(CC(=O)OCCCCCCCC)C(=O)OCCN1CCCC1=O", 0.81],
  ["C=C(CC(=O)OCCCCCCCC)C(=O)OC(C)CS(C)(=O)=O (stereo not shown)", 0.56],
  ["C=C(CC(=O)OCCCCCCCC)C(=O)OCCS(=O)(=O)N(C)C", 0.23],
  ["C=C(CC(=O)O[C@H](C)CCCCCC)C(=O)OC1CN(C(C)=O)C1", 0.81],
  ["C=C(CC(=O)OCCCCCCCC)C(=O)OC(C)COC (stereo not shown)", 1.11],
  ["C=C(CC(=O)OCCCCCCCC)C(=O)O[C@H]1CCOC1", 0.91],
  ["C=C(CC(=O)OCCCCCCCC)C(=O)OCC(=O)N1CCN(C)CC1", 1.00],
  ["C=C(CC(=O)O[C@H](C)CCCCCC)C(=O)OC(C)Cc1nnn[nH]1 (stereo partly shown)", 0.89],
  ["C=C(CC(=O)OCCCOCC)C(=O)OCC(=O)O", 2.00]
]}
